# System: 138582-337-R-J1-PDC spheroids with HUVEC/MSC, viability;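 note: spheroids exposed to compounds for seven days; 100% = DMSO vehicle control viability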
# procedureSummary: Anticancer human tumor 138582-337-R-J1-PDC patient-derived Merkel cell tumor cell line growth inhibition [IpAb]
# measurementSetup: second compound 0.1 µM; first compound 0.949 µM; active compounds read low

| molecule | viability, T/C (%) |
| --- | --- |
| CC(C)(C)c1cnc(CSc2cnc(NC(=O)C3CCNCC3)s2)o1 + CCN1CCN(Cc2ccc(Nc3ncc(F)c(-c4cc(F)c5nc(C)n(C(C)C)c5c4)n3)nc2)CC1 | 0.5 |
| CC(C)(C)c1cnc(CSc2cnc(NC(=O)C3CCNCC3)s2)o1 + CC(C)NCC(C(=O)N1CCN(c2ncnc3c2C(C)CC3O)CC1)c1ccc(Cl)cc1 | 0.3 |
| Cn1cnc2c(F)c(Nc3ccc(Br)cc3Cl)c(C(=O)NOCCO)cc21 + CCN1CCN(Cc2ccc(Nc3ncc(F)c(-c4cc(F)c5nc(C)n(C(C)C)c5c4)n3)nc2)CC1 | 76.9 |
| Cn1cnc2c(F)c(Nc3ccc(Br)cc3Cl)c(C(=O)NOCCO)cc21 + CC(C)NCC(C(=O)N1CCN(c2ncnc3c2C(C)CC3O)CC1)c1ccc(Cl)cc1 | 101 |
